# System Tested: T1, PTH/PTHrP receptor (P1R), wild-type, full-length (human, UniProt Q03431 27-593)
# T1 sequence (looked up): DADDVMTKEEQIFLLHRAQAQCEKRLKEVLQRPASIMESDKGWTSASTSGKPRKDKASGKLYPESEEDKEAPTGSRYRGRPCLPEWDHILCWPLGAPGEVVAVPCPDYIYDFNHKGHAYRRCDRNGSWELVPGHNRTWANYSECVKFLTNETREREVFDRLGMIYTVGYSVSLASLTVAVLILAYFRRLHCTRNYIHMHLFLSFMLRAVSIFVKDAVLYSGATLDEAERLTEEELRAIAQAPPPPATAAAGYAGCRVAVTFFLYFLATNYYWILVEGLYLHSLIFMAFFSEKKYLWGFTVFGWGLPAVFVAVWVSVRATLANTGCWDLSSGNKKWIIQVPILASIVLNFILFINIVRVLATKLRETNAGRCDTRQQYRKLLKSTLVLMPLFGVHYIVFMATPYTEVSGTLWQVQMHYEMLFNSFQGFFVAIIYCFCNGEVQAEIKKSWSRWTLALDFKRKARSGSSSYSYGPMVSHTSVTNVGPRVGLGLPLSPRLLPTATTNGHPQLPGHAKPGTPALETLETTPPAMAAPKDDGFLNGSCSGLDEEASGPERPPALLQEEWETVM
# Experiment Summary: cell-based or functional assay
No end group written: not given here.

Binder	cAMP Emax (%)
SVSEIQLMHNLGKHLNSMERVEWLRKKLQDVHNY-NH2 (Human PTH(1-34) analog with Tyr at 34; also called [Tyr^34]hPTH(1-34)NH2; PTH(1-34) scaffold peptide) [PTH(1-34) ([Tyr^34]hPTH(1-34)amide)]	100%
SVSEIQLMHALGKHLNSMERVEWLRKKLQDVHNY-NH2 [[Ala^10]PTH(1-34)]	106%
SVSEIALMHNLGKHLNSMERVEWLRKKLQDVHNY-NH2 (Gln6->Ala analog of [Tyr^34]hPTH(1-34)amide) [[Ala^6]PTH(1-34)]	105%
SVSEIALMHALGKHLNSMERVEWLRKKLQDVHNY-NH2 (Double Ala analog of [Tyr^34]hPTH(1-34)amide) [[Ala^6,10]PTH(1-34)]	107%
